Origin of measurements: patent US10227342B2

biological target: Her2 exon 20 YVMA insertion (A775_G776ins YVMA) (Homo sapiens (Human), UniProt P04626, INS775YVMA); assay: Ba/F3-Her2 Exon20 YVMA cell anti-proliferative assay (CellTiter 96 MTS, 72 h); conditions: Ba/F3-Her2 Exon20 YVMA cells
Sequence (P04626 other isoform, or with tags, fused parts or gaps ins YVMA behind 775): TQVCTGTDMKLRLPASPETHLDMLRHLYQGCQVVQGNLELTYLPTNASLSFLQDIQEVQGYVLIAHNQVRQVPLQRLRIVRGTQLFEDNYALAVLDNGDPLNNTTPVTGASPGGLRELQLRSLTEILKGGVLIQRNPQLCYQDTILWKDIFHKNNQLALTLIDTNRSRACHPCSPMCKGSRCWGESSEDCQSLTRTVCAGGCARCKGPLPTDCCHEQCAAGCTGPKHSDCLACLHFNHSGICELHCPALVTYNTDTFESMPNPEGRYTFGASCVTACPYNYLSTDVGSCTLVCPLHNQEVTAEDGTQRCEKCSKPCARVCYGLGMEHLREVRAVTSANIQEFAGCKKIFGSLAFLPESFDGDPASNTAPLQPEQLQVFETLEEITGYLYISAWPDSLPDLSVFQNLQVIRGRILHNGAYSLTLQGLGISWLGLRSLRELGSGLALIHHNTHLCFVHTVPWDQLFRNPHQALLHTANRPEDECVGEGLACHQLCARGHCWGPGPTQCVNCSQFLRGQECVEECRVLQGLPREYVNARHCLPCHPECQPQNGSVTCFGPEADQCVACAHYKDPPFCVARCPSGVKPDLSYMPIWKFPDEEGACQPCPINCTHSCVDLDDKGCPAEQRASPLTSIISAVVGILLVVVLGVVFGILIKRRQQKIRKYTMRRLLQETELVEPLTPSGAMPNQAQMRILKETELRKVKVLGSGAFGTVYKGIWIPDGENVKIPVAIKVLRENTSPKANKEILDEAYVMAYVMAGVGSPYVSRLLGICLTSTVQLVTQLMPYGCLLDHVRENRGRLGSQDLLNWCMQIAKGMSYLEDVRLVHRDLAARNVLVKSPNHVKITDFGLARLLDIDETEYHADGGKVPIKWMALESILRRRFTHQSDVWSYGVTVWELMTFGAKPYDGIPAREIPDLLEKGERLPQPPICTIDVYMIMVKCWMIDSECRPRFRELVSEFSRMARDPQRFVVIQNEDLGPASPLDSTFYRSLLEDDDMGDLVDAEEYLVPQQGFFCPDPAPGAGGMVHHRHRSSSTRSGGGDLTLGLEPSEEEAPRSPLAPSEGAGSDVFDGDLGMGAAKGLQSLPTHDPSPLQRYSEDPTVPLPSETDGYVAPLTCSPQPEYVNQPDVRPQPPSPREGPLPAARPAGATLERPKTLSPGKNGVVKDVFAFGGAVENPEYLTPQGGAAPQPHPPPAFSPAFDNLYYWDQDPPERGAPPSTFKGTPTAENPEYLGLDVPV

smiles input	IC50
C=CC(=O)Nc1cc(Nc2nccc(-c3c(C(=O)N(C)C)n(C)c4ccccc34)n2)c(OC)cc1N(C)CCN(C)C	100 to 500 nM
C=CC(=O)Nc1cc(Nc2ncc(Cl)c(-c3cnn4ccccc34)n2)c(OC)cc1N(C)CCN(C)C	100 to 500 nM
C=CC(=O)Nc1cc(Nc2ncc(C(=O)OC(C)C)c(-c3cn(C)c4ccccc34)n2)c(OC)cc1N(C)CCNC	< 100 nM
C=CC(=O)Nc1cc(Nc2ncc(N(C)C(=O)C(C)C)c(-c3cn(C)c4ccccc34)n2)c(OC)cc1N(C)CCN(C)C	> 1000 nM
C=CC(=O)Nc1ccc(OC)c(Nc2ncc(Cl)c(-c3c[nH]c4cc(OCCN5CCCC5)ccc34)n2)c1	100 to 500 nM
C=CC(=O)Nc1cc(Nc2ncc(NC(=O)C(C)(C)C)c(-c3cn(C)c4ccccc34)n2)c(OC)cc1OC	> 1000 nM
C=CC(=O)Nc1cc(Nc2ncc(C(=O)OC(C)C)c(-n3ccc4ccccc43)n2)c(OC)cc1N(C)CCN(C)C	< 100 nM
